Source of measurements: ChEMBL document CHEMBL5113378

test: Selectivity index, ratio of IC50 for rat L6 cells to IC50 for Plasmodium falciparum NF54; format: toxicity; settings: read-out: Ratio IC50
Entries and their selectivity ratio values follow.
Quantity kind: selectivity ratio

Cn1c2nc3ccccc3c-2c(NCCCNC(=S)Nc2ccccc2)c2ccccc21: 135
Cn1c2nc3ccccc3c-2c(NCC(C)(C)CNC(=S)Nc2ccccc2)c2ccccc21: 126
Cn1c2nc3ccccc3c-2cc2ccccc21 [NEOCRYPTOLEPINE]: 2

----------
Entries and their selectivity ratio values follow.
experiment: Selectivity index, ratio of IC50 for rat L6 cells to IC50 for Plasmodium falciparum NF54; assay type: toxicity; details: read-out: Ratio IC50
Quantity kind: selectivity ratio

Cn1c2nc3ccccc3c-2c(NCCCN2C(=O)c3ccccc3SC2c2ccc(Cl)cc2)c2ccccc21 (stereo unspecified): 361
Cn1c2nc3ccccc3c-2c(NCC(C)(C)CNC(=S)Nc2ccccc2)c2cc(Cl)ccc21: 164
NCCCNc1c2ccccc2nc2c1[nH]c1ccccc12: 16
CN(C)CCNc1nc2ccccc2c2[nH]c3ccccc3c12: 45.8
Cn1c2nc3ccccc3c-2c(NCC(C)(C)CNC(=O)Nc2ccccc2)c2ccccc21: 82.2
Cn1c2nc3ccccc3c-2c(NCCCN)c2ccccc21: 3.5

----------
system: Jurkat; assay: Antiproliferative activity against human Jurkat cells assessed as cell growth inhibition incubated for 4 days by sulphorhodamine assay; assay type: functional, cell-based; details: 96 h
Quantity kind: IC50 (nM)

Cc1cccc2c1c1nc3c(C(=O)NCCN(C)C)cccc3cc1n2C: 55

----------
experiment: Selectivity index, ratio of IC50 for human MRC5 to IC50 for Plasmodium falciparum Ghana; type: toxicity; conditions: MRC5 cells, read-out: Ratio IC50
Quantity kind: selectivity ratio

Cn1c2nc3ccccc3c-2cc2ccccc21 [NEOCRYPTOLEPINE]: 0.4

----------
system: MCF7; assay: Antiproliferative activity against human MCF7 cells assessed as cell growth inhibition; type: functional, cell-based
Entries and their IC50 values follow.
Quantity kind: IC50 (µM)

C[n+]1c2ccccc2cc2[n-]c3ccccc3c21 [CRYPTOLEPINE]: 0.63
CCCCNc1c2ccccc2[n+](C)c2c1[nH]c1ccccc12: 5.9

----------
assay: Cytotoxicity against rat L6 cells assessed as cell growth inhibition incubated for 70 hrs by alamar blue staining based microscopy; assay type: toxicity
Quantity kind: IC50 at 70 h

C[C@H]1[C@H](OC(=O)CCC(=O)NCCCNc2c3ccccc3[n+](C)c3[nH]c4ccccc4c23)O[C@@H]2O[C@@]3(C)CC[C@H]4[C@H](C)CC[C@@H]1[C@@]24OO3: 1530 nM

----------
tested on: Plasmodium falciparum; assay: Antimalarial activity against multi-drug resistant Plasmodium falciparum K1 assessed as parasite growth inhibition by microdilution method; type: functional, organism-based
Quantity kind: IC50

c1ccc2nc3c(cc2c1)[nH]c1ccccc13 [QUINDOLINE]: > 229 µM

----------
system: HCT-116; experiment: Antiproliferative activity against human HCT-116 cells assessed as cell growth inhibition; type: functional, cell-based
Quantity kind: IC50 (nM)

CN(CCCNc1c2ccccc2nc2c1[nH]c1ccccc12)C(=O)c1cccc(B(O)O)c1: 15700
CNCCCNc1c2ccccc2nc2c1[nH]c1ccccc12: 300
O=C(NCCNc1c2ccccc2nc2c1[nH]c1ccccc12)c1ccccc1: 800
